Origin of the recorded values: ChEMBL document CHEMBL3272204

Test system: Staphylococcus
Assay: Antibacterial activity against penicillin-resistant Staphylococcus pyogenes assessed as growth inhibition after 24 hrs
Assay type: functional
The source made the active and inactive calls. The calls are words filed in the database; no cut-off is given here.

Compound: CNC(=O)OC1C=CC(=O)C(C)(c2ccc(-c3ccccc3)cc2)O1 (stereo not given)
MIC: inactive
--
Compound: COC1C=CC(=O)C(C)(c2ccc(-c3ccccc3)cc2)O1 (single isomer, unassigned; isomer 1)
MIC: 6.2 µg/mL
--
Compound: COC1OC(C)(c2ccc(-c3ccccc3)cc2)C(O)CC1N(C)C (single isomer, unassigned; isomer 1)
MIC: inactive
--
Compound: COC1OC(C)(c2ccc(-c3ccccc3)cc2)C(O)CC1N(C)C (stereo in doubt; 3a)
MIC: inactive
--
Compound: COC1OC(C)(c2ccc(-c3ccccc3)cc2)C(O)CC1N1CCN(C)CC1 (stereo not given)
MIC: inactive
